Provenance of the data: patent US20120321619A1

Target: T1, recombinant soluble human C4.4a (human, UniProt O95274 31-308)
T1 construct: recombinant, soluble, purified protein; also called hC4.4a; full length C4.4a
T1 sequence: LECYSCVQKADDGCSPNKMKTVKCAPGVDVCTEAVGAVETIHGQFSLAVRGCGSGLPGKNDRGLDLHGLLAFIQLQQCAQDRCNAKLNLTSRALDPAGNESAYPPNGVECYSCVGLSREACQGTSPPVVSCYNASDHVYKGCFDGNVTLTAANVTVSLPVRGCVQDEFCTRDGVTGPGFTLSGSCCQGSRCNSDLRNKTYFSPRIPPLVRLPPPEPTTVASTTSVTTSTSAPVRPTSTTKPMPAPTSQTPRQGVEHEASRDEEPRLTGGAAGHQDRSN
Experiment: SPR (Biacore T100), IgG1 captured by anti-human Fc, soluble C4.4a injected, 1:1 fit
Value Kind: Kd

Binder	Reported Measurement
B01-5 (antibody, human IgG1, V domains shown, tested as human IgG1; also called B01-05) VH: EVQLLESGGGLVQPGGSLRLSCAASGFTFSNAWMSWVRQAPGKGLEWVSYISSSGSTIYYADSVKGRFTISRDNSKNTLYLQMNSLRAEDTAVYYCAREGLWAFDYWGQGTLVTVSS VL: QSVLTQPPSVSGAPGQRVTISCTGSSSNIGAGYVVHWYQQLPGTAPKLLIYDNNKRPSGVPDRFSGSKSGTSASLAISGLRSEDEADYYCAAYDDSLSGPVFGGGTKLTVLG	4 nM
